// data source = patent US8912227B1

Biological target: Human GPR120 short form (Homo sapiens, UniProt Q5NUL3)
Construct: expressed in transfected cells
Experiment: Human GPR120 calcium flux assay, Procedure Calcium A
Format: cell-based
Settings: HEK-293 cells expressing human GPR120 short form, 2500 cells/well, FLIPR
Measurement type: pEC50
Numbers only, as −log10 of the molar value.

Take a look at these entries with their results.
>  <Compound>
COc1ccc(-n2ccc(C(F)(F)F)c2COc2c(F)cc(CCC(=O)O)cc2F)cn1 [Compound 51]

>  <Assay system>
Human GPR120 short form (Homo sapiens, UniProt Q5NUL3)

>  <pEC50>
6.17

$$$$
>  <Compound>
Cc1ccc(-n2ccc(C(F)(F)F)c2COc2ccc(CCCO)c(F)c2F)cc1 [Compound 44]

>  <Assay system>
Human GPR120 short form (Homo sapiens, UniProt Q5NUL3)

>  <pEC50>
6.36

$$$$

Turning now to a further record.
q: Item under review: Cc1ccc(-n2ccc(C(F)(F)F)c2COc2ccc(CCC(=O)O)c(C)c2C)cc1 [Compound 43] . Reported pEC50?
a: 6.25

----------
Please go through the items and note down their pEC50.
Target: Human GPR120 short form (Homo sapiens)
Construct: expressed in transfected cells
Assay: Human GPR120 calcium flux assay, Procedure Calcium B
Type: cell-based
Conditions: HEK-293 cells expressing human GPR120 short form, 4200 cells/well, FLIPR
One number for each entry, as −log10 of the molar value.

Take a look at these entries with their results.
>  <Molecule>
Cc1ccc(-n2ccc(C(F)(F)F)c2COc2c(F)cc(CC(C)C(=O)O)cc2F)cc1 (stereo not shown) [Compound 60]

>  <Readout number>
6.73

$$$$
>  <Molecule>
CC(Cc1cc(F)c(OCc2c(C(F)(F)F)ccn2-c2ccc(Cl)c(F)c2)c(F)c1)C(=O)O (stereo not shown) [Compound 69]

>  <Readout number>
6.31

$$$$
>  <Molecule>
CCc1ccc(-n2ccc(C(F)(F)F)c2COc2ccc(CCC(=O)O)c(C)c2C)cc1 [Compound 36]

>  <Readout number>
6.84

$$$$
>  <Molecule>
O=C(O)CCc1ccc(OCc2c(Cl)ccn2-c2ccc(Cl)cc2)c(F)c1F [Compound 11]

>  <Readout number>
6.79

$$$$
>  <Molecule>
COc1ccc(-n2ccc(C(F)(F)F)c2COc2ccc(CCCO)c(F)c2F)cn1 [Compound 50]

>  <Readout number>
7.24

$$$$
>  <Molecule>
O=C(O)CCc1cc(F)c(OCc2c(C(F)(F)F)ccn2-c2ccc(Cl)cc2F)c(F)c1 [Compound 71]

>  <Readout number>
6.75

$$$$

Please go through the list and note pEC50 for each molecule.
1. Cc1ccc(-n2ccc(C(F)(F)F)c2COc2c(F)cc(CCC(=O)O)cc2F)cc1F [Compound 62]
2. O=C(O)CCc1cc(F)c(OCc2c(C(F)(F)F)ccn2-c2ccc(Cl)cc2)c(F)c1 [Compound 70]
3. O=C(O)CCc1cc(F)c(OCc2c(C(F)(F)F)ccn2-c2ccc(Br)cc2)c(F)c1 [Compound 22]
4. COc1ccc(-n2ccc(C(F)(F)F)c2COc2c(F)cc(CCC(=O)O)cc2F)cc1 [Compound 28]

a:
6.58
7.10
6.95
6.97

----------
Target: Human GPR120 short form (Homo sapiens, UniProt Q5NUL3)
Construct: expressed in transfected cells
Sequence (Q5NUL3 1-361): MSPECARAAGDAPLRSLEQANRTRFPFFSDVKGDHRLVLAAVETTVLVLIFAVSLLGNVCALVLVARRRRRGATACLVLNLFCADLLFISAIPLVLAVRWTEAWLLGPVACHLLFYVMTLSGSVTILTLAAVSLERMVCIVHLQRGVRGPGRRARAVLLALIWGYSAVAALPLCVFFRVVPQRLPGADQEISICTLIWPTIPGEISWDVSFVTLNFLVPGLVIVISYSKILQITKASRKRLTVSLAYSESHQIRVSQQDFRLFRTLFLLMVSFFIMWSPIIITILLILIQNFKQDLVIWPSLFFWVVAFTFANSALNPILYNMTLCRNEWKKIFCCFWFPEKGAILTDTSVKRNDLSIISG
Assay: Human GPR120 calcium flux assay, Procedure Calcium A
Format: cell-based
Conditions: HEK-293 cells expressing human GPR120 short form, 2500 cells/well, FLIPR
Measurement type: pEC50
Answers are plain numbers, as −log10 of the molar value.

Take a look at these entries with their results.
>  <Mol>
COc1ccc(-n2ccc(C(F)(F)F)c2COc2ccc(CCC(=O)O)c(C)c2C)cc1

>  <pEC50>
6.03

$$$$
>  <Mol>
Cc1ccc(-n2ccc(C(F)(F)F)c2COc2ccc(CCC(=O)O)c(F)c2F)cc1

>  <pEC50>
6.09

$$$$
>  <Mol>
CCc1ccc(-n2ccc(C(F)(F)F)c2COc2ccc(CCC(=O)O)c(C)c2C)cc1

>  <pEC50>
6.35

$$$$

Turning now to a further record.
q: Item under review: Cc1c(CCCO)ccc(OCc2c(Br)ccn2-c2ccc(Cl)cc2)c1C . Reported pEC50?
a: 5.81
